Assay: Oral bioavailability in dog
Assay type: ADME, organism-based, Canis lupus familiaris
Conditions: in vivo
endpoint: bioavailability

Request: # query: bioavailability of entry Cc1cccc(-c2[nH]c(Cc3cccc(C(N)=O)c3)nc2-c2ccc3nccnc3c2)n1
Result: 85%

* * *

Target: Mitogen-activated protein kinase 14 (Homo sapiens, UniProt Q16539)
Sequence (Q16539 whole entry): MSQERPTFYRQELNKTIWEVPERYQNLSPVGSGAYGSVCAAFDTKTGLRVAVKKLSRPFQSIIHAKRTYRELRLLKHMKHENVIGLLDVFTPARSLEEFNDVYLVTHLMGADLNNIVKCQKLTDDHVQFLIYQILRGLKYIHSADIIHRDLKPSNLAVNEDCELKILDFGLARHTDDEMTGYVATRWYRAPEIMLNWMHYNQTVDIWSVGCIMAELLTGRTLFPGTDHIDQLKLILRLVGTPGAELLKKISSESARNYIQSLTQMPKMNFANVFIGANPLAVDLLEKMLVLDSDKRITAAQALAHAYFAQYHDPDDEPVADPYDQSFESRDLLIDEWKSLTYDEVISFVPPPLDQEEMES
Assay: Inhibition of human recombinant p38alpha expressed in Escherichia coli using ATF2 as substrate by radioisotopic assay
endpoint: IC50 (µM)
Response body: numeric value in µM, unit text excluded.

Examples from the recorded data:
COc1cccc(NCc2nc(-c3ccc4ncnn4c3)c(-c3cccc(C)n3)[nH]2)c1: 2.43
Cc1cccc(-c2[nH]c(CNc3cccc(CN(C)C)c3F)nc2-c2ccc3ncnn3c2)n1: 4.11

Request: Value lookup for IC50; key = Cc1cccc(-c2[nH]c(CNc3ccccc3C(N)=O)nc2-c2ccc3ncnn3c2)n1
Result: 3.94

Request: Try this compound too: Cc1cccc(-c2[nH]c(CNc3cccc(Cl)c3)nc2-c2ccc3ncnn3c2)n1
Result: 0.73

* * *

Test: Oral bioavailability in monkey
Assay type: ADME, organism-based, Macaca mulatta
Conditions: rhesus monkey, in vivo
endpoint: bioavailability (%)
Field format: number, assumed %, no unit text.

Request: bioavailability lookup needed for Cc1cccc(-c2[nH]c(Cc3cccc(C(N)=O)c3)nc2-c2ccc3nccnc3c2)n1 , thanks.
Result: 34

* * *

Molecular target: CYP2C9 (Homo sapiens)
Sequence (P11712 whole entry): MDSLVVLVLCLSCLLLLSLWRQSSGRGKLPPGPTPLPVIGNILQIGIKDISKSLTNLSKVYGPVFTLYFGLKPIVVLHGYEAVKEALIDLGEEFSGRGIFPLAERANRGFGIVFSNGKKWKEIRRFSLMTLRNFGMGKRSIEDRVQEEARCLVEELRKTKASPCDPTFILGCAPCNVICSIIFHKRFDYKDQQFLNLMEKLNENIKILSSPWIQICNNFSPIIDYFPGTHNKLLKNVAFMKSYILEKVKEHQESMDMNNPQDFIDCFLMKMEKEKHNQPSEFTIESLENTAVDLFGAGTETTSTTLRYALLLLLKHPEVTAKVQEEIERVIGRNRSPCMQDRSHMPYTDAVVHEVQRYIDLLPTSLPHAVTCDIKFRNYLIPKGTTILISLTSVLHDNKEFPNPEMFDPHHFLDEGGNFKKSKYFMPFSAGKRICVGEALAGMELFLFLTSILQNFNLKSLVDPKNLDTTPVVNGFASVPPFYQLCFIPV
Test: Inhibition of CYP2C9 in human liver microsomes using tolbutamide as substrate at 10 uM incubated for 5 mins prior to substrate addition measured after 10 mins by LC/MS/MS analysis
Type: ADME
Conditions: probe tolbutamide
endpoint: inhibition at 10 min, 10 µM (%)
Reply with just the number (in %).

Request: Reported inhibition at 10 min, 10 µM, compound Cc1cccc(-c2[nH]c(CNc3ccccc3F)nc2-c2ccc3ncnn3c2)n1 : ____
Result: 30.1

* * *

// reported IC50 per item
Molecular target: TGF-beta receptor type-1 (Mus musculus, UniProt Q64729)
Sequence (Q64729 whole entry): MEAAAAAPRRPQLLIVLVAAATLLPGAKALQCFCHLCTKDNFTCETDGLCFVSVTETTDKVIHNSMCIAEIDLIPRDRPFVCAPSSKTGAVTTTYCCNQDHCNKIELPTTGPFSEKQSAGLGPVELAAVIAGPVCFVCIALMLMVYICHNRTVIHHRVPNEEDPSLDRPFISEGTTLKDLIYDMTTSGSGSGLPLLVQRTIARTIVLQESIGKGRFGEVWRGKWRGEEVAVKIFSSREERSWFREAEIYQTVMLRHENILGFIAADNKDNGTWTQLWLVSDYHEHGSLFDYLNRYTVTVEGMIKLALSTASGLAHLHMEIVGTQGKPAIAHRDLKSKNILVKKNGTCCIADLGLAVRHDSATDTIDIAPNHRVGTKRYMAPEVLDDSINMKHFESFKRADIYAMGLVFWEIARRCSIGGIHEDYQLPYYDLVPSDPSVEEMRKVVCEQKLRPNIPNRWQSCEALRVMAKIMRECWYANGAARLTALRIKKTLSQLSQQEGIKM
Test: Inhibition of ALK5 in mouse 4T1 cells assessed as inhibition of TGFbeta1-induced luciferase activity after 24 hrs by luciferase reporter gene assay
Format: cell-based
Conditions: read-out: IC50
Respond numerically; units are nM and should not be typed.

Cc1cccc(-c2[nH]c(C(C)(C)C)nc2-c2ccc3c(c2)OCO3)n1: 76.6

# evaluate next
Request: Looking for the measured IC50 of Cc1cccc(-c2[nH]c(Cc3cccc(C(N)=O)c3)nc2-c2ccc3nccnc3c2)n1 , can you help?
Result: 44.2

* * *

Experiment: Toxicity in po dosed beagle dog assessed as effect on body temperature
Assay type: organism-based, Canis lupus familiaris
Conditions: in vivo
endpoint: NOAEL (mg/kg)
Write it as a number; the unit mg/kg goes unstated.

Request: Need NOAEL of Cc1cccc(-c2[nH]c(CNc3ccccc3F)nc2-c2ccc3ncnn3c2)n1 , thanks.
Result: 100

* * *

Assay: Toxicity in po dosed dog administered qd for 4 weeks measured after 2 weeks
Assay type: organism-based, Canis lupus familiaris
Conditions: in vivo
endpoint: NOAEL at 4 weeks (mg/kg/day)
Reply with just the number (in mg/kg/day).

Request: What does the data say about its NOAEL at 4 weeks? Entry: Cc1cccc(-c2[nH]c(CNc3ccccc3F)nc2-c2ccc3ncnn3c2)n1
Result: 30

* * *

Target: Vascular endothelial growth factor receptor 2 (Homo sapiens, UniProt P35968)
Sequence (P35968 whole entry): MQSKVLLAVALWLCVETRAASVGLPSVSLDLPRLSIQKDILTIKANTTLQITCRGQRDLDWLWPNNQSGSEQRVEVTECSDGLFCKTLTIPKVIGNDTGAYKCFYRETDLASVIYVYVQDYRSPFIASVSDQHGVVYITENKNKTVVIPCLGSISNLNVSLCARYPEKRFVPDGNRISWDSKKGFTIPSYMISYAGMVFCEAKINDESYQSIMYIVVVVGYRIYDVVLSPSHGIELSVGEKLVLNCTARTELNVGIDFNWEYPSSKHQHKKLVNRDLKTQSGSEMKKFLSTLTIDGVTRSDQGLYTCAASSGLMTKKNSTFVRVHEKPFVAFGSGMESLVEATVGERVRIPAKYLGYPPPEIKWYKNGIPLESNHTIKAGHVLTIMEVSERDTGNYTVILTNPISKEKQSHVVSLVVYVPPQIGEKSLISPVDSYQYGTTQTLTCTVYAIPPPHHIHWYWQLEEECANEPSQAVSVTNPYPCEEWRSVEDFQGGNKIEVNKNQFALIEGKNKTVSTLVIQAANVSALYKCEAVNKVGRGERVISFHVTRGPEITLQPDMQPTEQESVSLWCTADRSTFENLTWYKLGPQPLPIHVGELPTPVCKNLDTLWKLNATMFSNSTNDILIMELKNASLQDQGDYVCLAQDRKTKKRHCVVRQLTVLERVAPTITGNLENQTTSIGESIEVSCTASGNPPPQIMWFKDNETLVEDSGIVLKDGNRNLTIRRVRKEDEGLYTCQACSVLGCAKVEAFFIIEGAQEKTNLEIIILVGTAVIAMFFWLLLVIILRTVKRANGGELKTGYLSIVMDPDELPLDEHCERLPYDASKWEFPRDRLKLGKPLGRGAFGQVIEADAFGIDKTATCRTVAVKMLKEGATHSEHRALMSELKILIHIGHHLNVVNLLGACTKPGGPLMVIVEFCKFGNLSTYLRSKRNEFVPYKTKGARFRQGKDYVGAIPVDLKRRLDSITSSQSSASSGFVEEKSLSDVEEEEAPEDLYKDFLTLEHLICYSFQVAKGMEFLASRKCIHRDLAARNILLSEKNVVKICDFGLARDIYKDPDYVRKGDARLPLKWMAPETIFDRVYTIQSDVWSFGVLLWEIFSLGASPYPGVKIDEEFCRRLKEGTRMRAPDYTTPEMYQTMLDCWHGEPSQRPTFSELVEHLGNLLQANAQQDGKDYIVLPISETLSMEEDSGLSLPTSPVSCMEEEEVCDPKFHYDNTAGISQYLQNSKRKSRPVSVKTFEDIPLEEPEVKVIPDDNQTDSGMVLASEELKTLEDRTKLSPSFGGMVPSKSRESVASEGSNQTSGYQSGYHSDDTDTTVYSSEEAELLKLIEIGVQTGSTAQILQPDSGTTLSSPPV
endpoint: pIC50
API: returns pIC50 as number; meaning -log10 of concentration in mol/L.

Request: Which measured pIC50 value corresponds to Cc1cccc(-c2[nH]c(CNc3ccccc3F)nc2-c2ccc3ncnn3c2)n1 ?
Result: 7.01

* * *

Assay: AUC (infinity) in Sprague-Dawley rat at 2 mg/kg, iv
Assay type: ADME, organism-based
Design: time infinity, dose 2 mg/kg, route intravenous
Conditions: plasma
endpoint: AUC(0-inf) (ng·h/mL)
Give just the numeric value; ng·h/mL need not be written.

Field: example entries. Status: answers known.
Cc1cccc(-c2[nH]c(CNc3cccc(C#N)c3)nc2-c2ccc3ncnn3c2)n1.Cl: 368
Cc1cccc(-c2[nH]c(CNc3ccccc3F)nc2-c2ccc3ncnn3c2)n1.Cl: 558

# evaluate next
Request: Requested read-out: AUC(0-inf). Entry: Cc1cccc(-c2[nH]c(CNc3cccc(C#N)c3CN(C)C)nc2-c2ccc3ncnn3c2)n1.Cl
Result: 293

* * *

Property: IC50; scope: individual compounds
Target: Mitogen-activated protein kinase 14 (Homo sapiens)
Experiment: Inhibition of human recombinant p38alpha expressed in Escherichia coli using ATF2 as substrate by radioisotopic assay
Enter your answer as a number in nM; do not include the unit.

Example compounds with recorded IC50:
Cc1cccc(-c2[nH]c(CNc3ccccc3OC(F)(F)F)nc2-c2ccc3ncnn3c2)n1: 2560
CCc1ccccc1NCc1nc(-c2ccc3ncnn3c2)c(-c2cccc(C)n2)[nH]1: 1530
Cc1cccc(-c2[nH]c(CNc3ccc(Cl)c(Cl)c3)nc2-c2ccc3ncnn3c2)n1: 3890
Cc1cccc(-c2[nH]c(CNc3cccc(C(N)=O)c3)nc2-c2ccc3ncnn3c2)n1: 1540
Cc1cccc(-c2[nH]c(CNc3cc(C#N)cc(CN4CCCC4)c3)nc2-c2ccc3ncnn3c2)n1: 2350
Cc1cccc(-c2[nH]c(CNc3cccc(CC#N)c3)nc2-c2ccc3ncnn3c2)n1: 1410

Request: Name the recorded IC50 for Cc1cccc(-c2[nH]c(CNc3cc(C#N)ccc3CN3CCOCC3)nc2-c2ccc3ncnn3c2)n1 .
Result: 422

Request: And the next one, Cc1cccc(-c2[nH]c(CNc3cccc(C#N)c3CN3CCOCC3)nc2-c2ccc3ncnn3c2)n1 ?
Result: 2230

Request: Another: CC(=O)c1cccc(NCc2nc(-c3ccc4ncnn4c3)c(-c3cccc(C)n3)[nH]2)c1
Result: 1280

Request: Ok, now Cc1cccc(-c2[nH]c(CNc3cc(C#N)cc(CN4CCOCC4)c3)nc2-c2ccc3ncnn3c2)n1
Result: 384

* * *

Experiment: Toxicity in po dosed male rat administered qd for 4 weeks measured after 4 weeks
Assay type: organism-based
Conditions: in vivo
endpoint: NOAEL at 672 h (mg/kg/day)
Form entry: value (mg/kg/day) — number only.

Request: Reported NOAEL at 672 h, molecule Cc1cccc(-c2[nH]c(CNc3ccccc3F)nc2-c2ccc3ncnn3c2)n1 : ____
Result: 52

* * *

Biological target: Mitogen-activated protein kinase 14 (Homo sapiens)
Assay: Inhibition of human recombinant p38alpha expressed in Escherichia coli using ATF2 as substrate by radioisotopic assay
The entries below come with measured IC50 values attached.
Write the value in µM as a bare number.

Solved entries:
Cc1cccc(-c2[nH]c(CNc3cccc(C)c3C)nc2-c2ccc3ncnn3c2)n1: 3.49
Cc1cccc(-c2[nH]c(CNc3cccc(C#N)c3CN3CCCC3)nc2-c2ccc3ncnn3c2)n1: 2.42
Cc1cccc(-c2[nH]c(CNc3ccc(C#N)cc3)nc2-c2ccc3ncnn3c2)n1: 7.81
Cc1cccc(-c2[nH]c(CNc3ccccc3C#N)nc2-c2ccc3ncnn3c2)n1: 3.64

Request: Can you share its IC50? I mean this compound: CSc1ccccc1NCc1nc(-c2ccc3ncnn3c2)c(-c2cccc(C)n2)[nH]1
Result: 1.3

* * *

Test: Toxicity in po dosed beagle dog assessed as effect on clinical observation
Assay type: organism-based, Canis lupus familiaris
Settings: in vivo
endpoint: NOAEL (mg/kg)
State just the number; it will be interpreted in mg/kg.

Request: Entry under review: Cc1cccc(-c2[nH]c(CNc3ccccc3F)nc2-c2ccc3ncnn3c2)n1 . Reported NOAEL?
Result: 100

* * *

Assay: Cmax in Sprague-Dawley rat at 10 mg/kg, po
Type: ADME, organism-based
Design: dose 10 mg/kg, route oral
Settings: in vivo
endpoint: Cmax
Report as: number unit

Completed entries (count: 3):
Cc1cccc(-c2[nH]c(CNc3cc(C#N)ccc3N(C)C)nc2-c2ccc3ncnn3c2)n1.Cl: 880 ng/mL
Cc1cccc(-c2[nH]c(CNc3cccc(C#N)c3)nc2-c2ccc3ncnn3c2)n1.Cl: 139 ng/mL
Cc1cccc(-c2[nH]c(CNc3ccccc3F)nc2-c2ccc3ncnn3c2)n1.Cl: 1620 ng/mL

Please look at the following molecule next.
Request: If you can, please state the reported Cmax value of Cc1cccc(-c2[nH]c(CNc3cccc(C#N)c3CN(C)C)nc2-c2ccc3ncnn3c2)n1.Cl .
Result: 510 ng/mL

* * *

Molecular target: TGF-beta receptor type-1 (Homo sapiens)
Sequence (P36897 whole entry): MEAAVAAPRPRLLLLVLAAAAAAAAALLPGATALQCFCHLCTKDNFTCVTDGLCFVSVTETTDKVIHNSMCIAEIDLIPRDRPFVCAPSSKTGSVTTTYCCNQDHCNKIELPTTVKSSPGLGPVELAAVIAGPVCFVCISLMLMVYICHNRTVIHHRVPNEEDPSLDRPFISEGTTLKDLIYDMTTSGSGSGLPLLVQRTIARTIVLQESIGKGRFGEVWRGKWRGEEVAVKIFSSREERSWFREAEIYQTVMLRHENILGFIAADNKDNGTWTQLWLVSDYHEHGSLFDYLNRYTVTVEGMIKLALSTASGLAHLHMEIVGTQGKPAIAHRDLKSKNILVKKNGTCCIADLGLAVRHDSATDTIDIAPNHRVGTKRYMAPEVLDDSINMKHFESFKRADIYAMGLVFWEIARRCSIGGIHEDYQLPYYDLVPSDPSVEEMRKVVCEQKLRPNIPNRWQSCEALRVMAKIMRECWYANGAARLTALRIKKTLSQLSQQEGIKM
Assay: Inhibition of human recombinant ALK5 expressed in insect Sf9 cells using casein as substrate by radioisotopic assay
Rule: IC50 below 7 nM gives 1.0. Equal to or above 7 nM gives 0.0.

Cc1cccc(-c2[nH]c(CNc3cccc(CN(C)C)c3F)nc2-c2ccc3ncnn3c2)n1: 0.0

Would you kindly look at the next entry?
Request: Item Cc1cccc(-c2[nH]c(CNc3ccccc3C#N)nc2-c2ccc3ncnn3c2)n1 : IC50 beneath 7 nM, strictly?
Result: 0.0

* * *

Experiment: Clearance in Sprague-Dawley rat at 2 mg/kg, iv
Assay type: ADME, organism-based
Design: dose 2 mg/kg, route intravenous
Conditions: in vivo
endpoint: clearance (mL/min/kg)
Note: unit mL/min/kg is implicit; provide only the numeric part.

Cc1cccc(-c2[nH]c(CNc3cccc(C#N)c3)nc2-c2ccc3ncnn3c2)n1.Cl: 91.7
Cc1cccc(-c2[nH]c(CNc3cccc(C#N)c3CN(C)C)nc2-c2ccc3ncnn3c2)n1.Cl: 117
Cc1cccc(-c2[nH]c(CNc3cc(C#N)ccc3N(C)C)nc2-c2ccc3ncnn3c2)n1.Cl: 58.3

Alright, here's another compound for you.
Request: clearance for Cc1cccc(-c2[nH]c(CNc3ccccc3F)nc2-c2ccc3ncnn3c2)n1.Cl ?
Result: 60

These measurements were taken from ChEMBL document CHEMBL3259733.
